Where a name gives a salt, the structure may show the parent alone.
Overview of reported melting point across a group of molecules:

Below, each entry is followed by its recorded melting point result.
{"molecule": "Clc1ccc2c(NCCCOc3ccc(-c4nc5ccccc5[nH]4)cc3)ccnc2c1 [Compound 13a]", "melting point": "200 to 202 °C"}
{"molecule": "Clc1ccc2c(NCCOc3ccc(-c4nc5ccc(Cl)cc5[nH]4)cc3Br)ccnc2c1 [Compound 11b]", "melting point": "238 to 240 °C"}
{"molecule": "Clc1ccc2c(NCCOc3ccc(-c4nc5ccc(Cl)cc5[nH]4)cc3)ccnc2c1 [Compound 10b]", "melting point": "222 to 224 °C"}
{"molecule": "Clc1ccc2c(NCCCOc3ccc(-c4nc5ccc(Cl)cc5[nH]4)cc3)ccnc2c1 [Compound 13b]", "melting point": "198 to 200 °C"}
{"molecule": "COc1cc(-c2nc3ccccc3[nH]2)ccc1OCCCNc1ccnc2cc(Cl)ccc12 [Compound 15a]", "melting point": "179 to 181 °C"}

QUERY: Quick check: melting point of COc1cc(-c2nc3ccc(C(=N)NC4CCCC4)cc3[nH]2)ccc1OCCCNc1ccnc2cc(Cl)ccc12 (as salt: hydrochloride) [Compound 15d] ?
RESULT: 260 °C (dec.)

QUERY: Sample COc1ccc2nc(-c3ccc(OCCCNc4ccnc5cc(Cl)ccc45)c(Br)c3)[nH]c2c1 [Compound 14c] — what was its melting point?
RESULT: 230 °C (dec.)

QUERY: Quick one: melting point for Clc1ccc2c(NCCOc3ccc(-c4nc5ccccc5[nH]4)cc3)ccnc2c1 [Compound 10a] ?
RESULT: 171 to 173 °C

----------
Where a name gives a salt, the structure may show the parent alone.
Reported melting point is given for each of the following compounds.

Example entries begin here.
{"compound": "N=C(NC1CCCC1)c1ccc2nc(-c3ccc(OCCNc4ccnc5cc(Cl)ccc45)c(Br)c3)[nH]c2c1 (as salt: hydrochloride) [Compound 11d]", "melting point": "234 °C (dec.)"}
{"compound": "N=C(NC1CCCC1)c1ccc2nc(-c3ccc(OCCCNc4ccnc5cc(Cl)ccc45)cc3)[nH]c2c1 (as salt: hydrochloride) [Compound 13d]", "melting point": "> 275 °C"}
{"compound": "COc1cc(-c2nc3ccc(C(=N)NC4CCCC4)cc3[nH]2)ccc1OCCNc1ccnc2cc(Cl)ccc12 (as salt: hydrochloride) [Compound 12d]", "melting point": "226 °C (dec.)"}
{"compound": "Clc1ccc2c(NCCOc3ccc(-c4nc5ccccc5[nH]4)cc3Br)ccnc2c1 [Compound 11a]", "melting point": "226 to 228 °C"}
{"compound": "COc1cc(-c2nc3ccc(Cl)cc3[nH]2)ccc1OCCNc1ccnc2cc(Cl)ccc12 [Compound 12b]", "melting point": "222 °C"}

QUERY: Given the compound Clc1ccc2c(NCCCOc3ccc(-c4nc5ccc(Cl)cc5[nH]4)cc3Br)ccnc2c1 [Compound 14b] , what is its reported melting point?
RESULT: 219 to 221 °C

QUERY: Any idea what melting point was measured for COc1ccc2nc(-c3ccc(OCCNc4ccnc5cc(Cl)ccc45)c(OC)c3)[nH]c2c1 [Compound 12c] ?
RESULT: 218 to 219 °C

----------
Counter-ions that a name gives are not always drawn.
endpointLabel: melting point

Past entries and their recorded results:
{"compound": "COc1ccc2nc(-c3ccc(OCCNc4ccnc5cc(Cl)ccc45)c(Br)c3)[nH]c2c1 [Compound 11c]", "melting point": "208 to 210 °C"}
{"compound": "COc1ccc2nc(-c3ccc(OCCCNc4ccnc5cc(Cl)ccc45)cc3)[nH]c2c1 [Compound 13c]", "melting point": "212 °C (dec.)"}
{"compound": "COc1ccc2nc(-c3ccc(OCCNc4ccnc5cc(Cl)ccc45)cc3)[nH]c2c1 [Compound 10c]", "melting point": "248 °C (dec.)"}
{"compound": "COc1ccc2nc(-c3ccc(OCCCNc4ccnc5cc(Cl)ccc45)c(OC)c3)[nH]c2c1 [Compound 15c]", "melting point": "220 °C (dec.)"}
{"compound": "COc1cc(-c2nc3ccccc3[nH]2)ccc1OCCNc1ccnc2cc(Cl)ccc12 [Compound 12a]", "melting point": "210 to 212 °C"}
{"compound": "COc1cc(-c2nc3ccc(Cl)cc3[nH]2)ccc1OCCCNc1ccnc2cc(Cl)ccc12 [Compound 15b]", "melting point": "190 to 192 °C"}

With those in mind, consider the next compound.
QUERY: Suppose we examine the compound N=C(NC1CCCC1)c1ccc2nc(-c3ccc(OCCCNc4ccnc5cc(Cl)ccc45)c(Br)c3)[nH]c2c1 (as salt: hydrochloride) [Compound 14d] ; what melting point value has been reported?
RESULT: 265 °C (dec.)

----------
assay: Antiproliferative MTT assay, whole panel of cell lines; assay type: cell-based; conditions: human, range over the cell lines tested, read-out: IC50 (cytotoxicity) across non-tumor and tumor cell lines
endpointLabel: IC50 at 72 h

QUERY: I am curious: what IC50 at 72 h value has been reported for COc1cc(-c2nc3ccc(C(=N)NC4CCCC4)cc3[nH]2)ccc1OCCCNc1ccnc2cc(Cl)ccc12 [Compound 15d] ?
RESULT: 12.8 to 100 µM

----------
test system: HL-60 (acute promyelocytic leukemia); assay: Antiproliferative MTT assay, HL-60; format: cell-based, human; details: Homo sapiens, HL-60, 72 h, mean ± SD of three experiments
pIC50: −log10 of the molar value.
Assign met whenever pIC50 does not fall below 6; assign not met whenever it does.

Please review the entries below; each comes with its answer.
{"compound": "COc1ccc2nc(-c3ccc(OCCNc4ccnc5cc(Cl)ccc45)cc3)[nH]c2c1 [Compound 10c]", "assignedCategory": "not met"}
{"compound": "COc1ccc2nc(-c3ccc(OCCNc4ccnc5cc(Cl)ccc45)c(OC)c3)[nH]c2c1 [Compound 12c]", "assignedCategory": "met"}
{"compound": "Clc1ccc2c(NCCOc3ccc(-c4nc5ccc(Cl)cc5[nH]4)cc3)ccnc2c1 [Compound 10b]", "assignedCategory": "not met"}
{"compound": "COc1cc(-c2nc3ccc(C(=N)NC4CCCC4)cc3[nH]2)ccc1OCCCNc1ccnc2cc(Cl)ccc12 [Compound 15d]", "assignedCategory": "not met"}
{"compound": "COc1cc(-c2nc3ccc(C(=N)NC4CCCC4)cc3[nH]2)ccc1OCCNc1ccnc2cc(Cl)ccc12 [Compound 12d]", "assignedCategory": "not met"}

Now consider the entry below.
QUERY: Could you please find out whether N=C(NC1CCCC1)c1ccc2nc(-c3ccc(OCCNc4ccnc5cc(Cl)ccc45)c(Br)c3)[nH]c2c1 [Compound 11d] has pIC50 that meets 6 or exceeds it?
RESULT: not met

----------
test system: HL-60 (acute promyelocytic leukemia); experiment: Antiproliferative MTT assay, HL-60; assay type: cell-based, human; conditions: Homo sapiens, HL-60, 72 h, mean ± SD of three experiments
endpointLabel: pIC50
When answering, recall that pIC50 equals minus log10 of the concentration in mol/L, and write that number alone.

{"molecule": "COc1ccc2nc(-c3ccc(OCCCNc4ccnc5cc(Cl)ccc45)c(OC)c3)[nH]c2c1 [Compound 15c]", "endpointLabel": "pIC50", "quantitativeResult": 6.70}

QUERY: Requested field: pIC50. Item: COc1ccc2nc(-c3ccc(OCCCNc4ccnc5cc(Cl)ccc45)c(Br)c3)[nH]c2c1 [Compound 14c]
RESULT: 6.52

QUERY: Fill blank: measured pIC50 of the molecule Clc1ccc2c(NCCOc3ccc(-c4nc5ccc(Cl)cc5[nH]4)cc3Br)ccnc2c1 [Compound 11b] is ____.
RESULT: 5.89

QUERY: Recorded pIC50 for COc1cc(-c2nc3ccccc3[nH]2)ccc1OCCNc1ccnc2cc(Cl)ccc12 [Compound 12a] , please?
RESULT: 5.70

----------
test system: HL-60 (acute promyelocytic leukemia); test: Antiproliferative MTT assay, HL-60; format: cell-based, human; details: Homo sapiens, HL-60, 72 h, mean ± SD of three experiments
endpointLabel: IC50 (nM)
Reply numerically in nM, unit not repeated.

Worked examples follow.
{"molecule": "COc1cc(-c2nc3ccc(Cl)cc3[nH]2)ccc1OCCNc1ccnc2cc(Cl)ccc12 [Compound 12b]", "unitOfMeasure": "nM", "quantitativeResult": 3300}
{"molecule": "N=C(NC1CCCC1)c1ccc2nc(-c3ccc(OCCCNc4ccnc5cc(Cl)ccc45)c(Br)c3)[nH]c2c1 [Compound 14d]", "unitOfMeasure": "nM", "quantitativeResult": 24400}
{"molecule": "COc1cc(-c2nc3ccc(Cl)cc3[nH]2)ccc1OCCCNc1ccnc2cc(Cl)ccc12 [Compound 15b]", "unitOfMeasure": "nM", "quantitativeResult": 200}
{"molecule": "COc1cc(-c2nc3ccccc3[nH]2)ccc1OCCCNc1ccnc2cc(Cl)ccc12 [Compound 15a]", "unitOfMeasure": "nM", "quantitativeResult": 400}

QUERY: Can you look up the measured IC50 of COc1ccc2nc(-c3ccc(OCCCNc4ccnc5cc(Cl)ccc45)cc3)[nH]c2c1 [Compound 13c] for me?
RESULT: 300

QUERY: Which IC50 reading was recorded for the molecule Clc1ccc2c(NCCCOc3ccc(-c4nc5ccccc5[nH]4)cc3)ccnc2c1 [Compound 13a] ?
RESULT: 400

QUERY: Consider the molecule Clc1ccc2c(NCCOc3ccc(-c4nc5ccccc5[nH]4)cc3Br)ccnc2c1 [Compound 11a] and give its measured IC50.
RESULT: 300
